- assayContext: octanol/water
- Description: Lipophilic-hydrophilic balance, Rm of the compound by TLC analysis
Note to self: values exactly at 2 are True. So Rm at or above 2 is True, below is False.

> print(dat)
                        testsmiles  category
1           C=CCOc1cc(N)ccc1C(=O)O     False
2            Nc1ccc(C(=O)O)c(Cl)c1      True
3               Cc1cc(C(=O)O)ccc1N     False
4         Cl.Nc1ccc(C(=O)O)c(Br)c1      True
5                Nc1ccc(C(=O)O)cc1     False
6  Nc1ccc(C(=O)O)c([N+](=O)[O-])c1      True
7               Nc1ccc(C(=O)O)cc1F     False

Recorded values, source ChEMBL document CHEMBL3271943.
